FYI, the data here is from the supplement of paper PMC10567573.

B1: TRAF3IP2 (parent)
chain: KEHVPTWLQNTHVYSWPKNKKNIL

variants of: B1; assay: protein stability index of a GFP-peptide fusion (GPS, HEK-293T) (PSI 1-6); higher = more stable; conditions: c terminus: a fixed tail appended;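 note: lentivirally expressed fusions sorted by FACS into six bins by GFP to DsRed ratio, PSI derived from sequencing read proportions per bin multiplied by bin number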
assay_endpoint: protein stability index
Answers are plain numbers.

Example entries begin here.
KNHVPTWLQNTHVYSWPKNKKNIL [E2N] = 2.14
KEHVPTWLQNTHVESWPKNKKNIL [Y14E] = 3.14
KEHVPTWLDNTHVYSWPKNKKNIL [Q9D] = 2.53

For each of the variants below, state protein stability index.
1. KEHVPTWLQNCHVYSWPKNKKNIL [T11C]
2. KEHVPTWLQNTHVYVWPKNKKNIL [S15V]
3. KEHLPTWLQNTHVYSWPKNKKNIL [V4L]
4. KEHVPTWLQNTHVYSWPKNKKNSL [I23S]
5. KEHVPTWLQNTHVYSWPKRKKNIL [N19R]
6. KEHVPTWLQNTHVYSWPKNKSNIL [K21S]

A.
1. 2.28
2. 2.43
3. 3.21
4. 2.94
5. 2.3
6. 2.24

For each of the variants below, state protein stability index.
1. KEHVPTWLQNTHVYSYPKNKKNIL [W16Y]
2. KEHVPTWLQNTHVYSWPKNKKRIL [N22R]

A.
[3, 2.2]
